Target or system: human ether-à-go-go-related gene (hERG) potassium channel (human);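 further: peak tail current of the secondary pulse compared with the same well before compound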
Experimental details: primary screen, population patch clamp on CHO cells stably expressing hERG; higher = less effect of the substance
Hit rate of the full screen: of about 310,000 compounds, about 14,000 (4.5%) showed an effect of 50% or more. Effects have a minus sign here. This is one part of a sample in which strong results are shown more often than they occur.
Reported property: hERG current change (%, negative = inhibition) at 10uM (%)

{"columns": ["Molecule", "Readout units", "Measured"],
 "data": [
  ["CN(C)CCN(C)Cc1c2ccccc2c(CN(C)CCN(C)C)c2ccccc12", "%", 0.802],
  ["CC(C)COC(=O)c1ccc(NC(=O)C2C3CCC(C3)C2C(=O)O)cc1 (stereo not drawn)", "%", 7.41],
  ["Clc1cccc(Cc2ccc(Cl)nn2)c1", "%", -3.46],
  ["Cc1ccc(NC(=O)COC(=O)c2ccc3c(c2)OCCO3)cc1S(=O)(=O)N1CCOCC1", "%", 6.16],
  ["CN(C)Cc1ccccc1Sc1ccccc1Br", "%", -36.5],
  ["Cc1cccc(-c2ccc3ncnc(NCc4cccs4)c3c2)c1", "%", -8.55],
  ["O=C(COC(=O)CCCN1C(=O)c2ccccc2C1=O)Nc1cc(Cl)cc(Cl)c1", "%", -3.11],
  ["CCn1c(SCC(=O)Nc2ccc(OC)cc2)nnc1-c1ccco1", "%", -22.3],
  ["CN(NC(=O)c1ccco1)c1nc2ccccc2nc1C(F)(F)F", "%", 0.871],
  ["NS(=O)(=O)c1ccc(NC(=O)c2ccc3c(c2)OCO3)cc1", "%", 11.3],
  ["O=C(CSc1ncccn1)NCc1ccc2c(c1)OCO2", "%", 11.9],
  ["CCOc1ccc(CN2CCNC(=O)C2CC(=O)NCCCC2CCCC2)cc1 (stereo not drawn)", "%", -34.1],
  ["CCCS(=O)(=O)N1CCC(C(=O)NCCCOC)CC1", "%", -0.339],
  ["CCOc1ccc(NC(=O)c2nc(SCC)ncc2Cl)cc1", "%", 15],
  ["CC(C)C(=O)Nc1ccccc1N1CCN(C(=O)c2ccccc2)CC1", "%", -14.2],
  ["COc1cccc(-c2ccc3ncnc(NCc4cccc(C)c4)c3c2)c1", "%", -0.57],
  ["O=C(OCC(=O)N1CCCCCC1)c1cnc(Cl)c(Cl)c1", "%", -2.83],
  ["Cc1cc(Cl)c(S(=O)(=O)NCc2ccncc2)cc1OCC(N)=O", "%", 1.62],
  ["O=C(Nc1ccccc1N1CCN(C(=O)c2ccc(Cl)cc2)CC1)c1ccc(Br)cc1", "%", -41.5],
  ["COc1cc(/C=C/C(=O)O)cc(S(=O)(=O)Nc2ccc3nc(C)sc3c2)c1OC", "%", 26.5],
  ["COc1cc(C(=O)NC(=S)Nc2ccc(NC(=O)c3ccco3)cc2)cc(OC)c1OC", "%", -6.61]
]}

====

Target or system: human ether-à-go-go-related gene (hERG) potassium channel (human, UniProt Q12809);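 further: peak tail current of the secondary pulse compared with the same well before compound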
Sequence (Q12809 whole entry, looked up): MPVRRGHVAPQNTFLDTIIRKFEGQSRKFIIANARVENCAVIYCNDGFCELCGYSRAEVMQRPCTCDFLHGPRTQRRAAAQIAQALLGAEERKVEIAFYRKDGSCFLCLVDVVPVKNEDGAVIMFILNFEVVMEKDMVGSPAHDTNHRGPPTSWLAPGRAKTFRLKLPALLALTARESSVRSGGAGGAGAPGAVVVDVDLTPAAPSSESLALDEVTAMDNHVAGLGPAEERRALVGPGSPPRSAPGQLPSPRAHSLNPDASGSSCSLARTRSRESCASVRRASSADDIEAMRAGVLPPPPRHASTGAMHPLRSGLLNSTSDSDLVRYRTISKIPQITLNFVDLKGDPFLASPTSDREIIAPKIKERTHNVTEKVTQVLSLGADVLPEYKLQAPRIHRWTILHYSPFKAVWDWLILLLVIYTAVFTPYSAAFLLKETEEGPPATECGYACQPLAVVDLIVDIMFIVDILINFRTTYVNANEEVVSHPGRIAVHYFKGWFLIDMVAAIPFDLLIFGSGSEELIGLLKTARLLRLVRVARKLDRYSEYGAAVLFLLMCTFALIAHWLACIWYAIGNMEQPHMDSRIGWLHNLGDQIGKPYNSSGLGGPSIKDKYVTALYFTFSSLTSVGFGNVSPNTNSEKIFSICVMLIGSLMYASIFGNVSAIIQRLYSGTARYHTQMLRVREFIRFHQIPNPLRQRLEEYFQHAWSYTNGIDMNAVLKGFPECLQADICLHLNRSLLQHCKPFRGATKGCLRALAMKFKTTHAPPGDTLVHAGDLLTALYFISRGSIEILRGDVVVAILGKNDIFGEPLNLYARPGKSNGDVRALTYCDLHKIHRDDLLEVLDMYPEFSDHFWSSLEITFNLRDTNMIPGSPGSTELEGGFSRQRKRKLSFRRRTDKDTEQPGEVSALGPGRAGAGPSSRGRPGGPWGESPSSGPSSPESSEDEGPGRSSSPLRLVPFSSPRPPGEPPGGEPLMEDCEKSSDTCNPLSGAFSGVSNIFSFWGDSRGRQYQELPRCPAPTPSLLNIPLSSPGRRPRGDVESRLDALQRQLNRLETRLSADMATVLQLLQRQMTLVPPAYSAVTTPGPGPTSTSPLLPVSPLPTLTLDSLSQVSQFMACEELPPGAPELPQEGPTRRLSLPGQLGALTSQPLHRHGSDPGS
Experimental details: primary screen, population patch clamp on CHO cells stably expressing hERG; higher = less effect of the substance
The campaign covered roughly 310,000 compounds. About 14,000 (4.5%) showed an effect of 50% or more. The effect is printed as a negative number. Only a selection was taken, and strong results are over-represented in it overall.
Catalogue of hERG current change (%, negative = inhibition) at 10uM readings, one per entry.
Reported property: hERG current change (%, negative = inhibition) at 10uM (%)

{"columns": ["Chem smiles", "Readout units", "Measured"],
 "data": [
  ["CCc1c(C)nc2ncnn2c1Nc1ccccc1C", "%", -34.1],
  ["Cc1occc1C(=O)Nc1ccc2c(c1)OCO2", "%", -7.71],
  ["C/C(=C\\c1ccccc1)CN1CCN(c2ccccc2)CC1", "%", -3.31],
  ["COc1ccccc1N1CCN(CCc2ccccc2)CC1", "%", -59.4],
  ["COc1cc2ccccc2cc1C(=O)NCCCN1CCOCC1", "%", -5.9],
  ["COc1ccccc1N1CCN(C/C(C)=C/c2ccccc2)CC1", "%", -63.4],
  ["Cc1ccc(Oc2ncc(CN3CCOCC3)s2)cc1", "%", 3.3],
  ["COc1ccc(OC)c(Nc2nc(-c3ccc(O)c(O)c3)cs2)c1", "%", 10.8],
  ["CC(=O)N1CCN=C1SCc1ccccc1F", "%", 12.6],
  ["CSc1nnnn1CCn1nnnc1SC", "%", 10.1],
  ["Cc1cccc(N2CCN(C(=S)NCCc3ccccc3)CC2)c1C", "%", -5.03],
  ["Cc1cccc(N2CCN(CCc3ccccc3)CC2)c1C", "%", -75.1]
]}
